Source of measurements: PubChem BioAssay (EPA / NIEHS)

Read-out: Tumor necrosis factor (Homo sapiens)
experimental.details: BSK_LPS_TNFa: BioMAP Diversity Plus: LPS Assay for Tumour Necrosis Factor alpha (TNFa) Biomarker Activity (AID 2283085)
conditions.used: primary human HUVEC with PBMC; actives raise or lower the signal
Calls of active or inactive are those of the source. The calls were made as follows: active = hit-call score of the fitted dose curve at least 0.9, where 1 is the maximum; inactive = score below 0.9.
Pick from active, inactive when you respond.

Worked set:
In [3]: df
Out[3]:
                                   compound     class
0  O=C(O)C(F)(OC(F)(F)C(F)(OC(F)(F)C(F)(OC(F)(F)C(F)(F)C(F)(F)F)C(F)(F)F)C(F)(F)F)C(F)(F)F (configuration not stated)  inactive
1        O=C(CC(=O)C(F)(F)C(F)(F)F)C(F)(F)F  inactive
2  Cc1ccc(S(=O)(=O)OCC(F)(F)C(F)(F)C(F)(F)C(F)(F)C(F)(F)C(F)F)cc1  inactive
3        CCc1ccc(C(c2ccc(CC)cc2)C(Cl)Cl)cc1    active
4                    C=CC/C=C/C/C=C/C/C=C/C    active

Q: Which outcome was assigned to O=C(O)C(F)(F)C(F)(F)F in this test?
Ans: inactive

Q: Repeat with CCN(CC)c1ccc2c(C)cc(=O)oc2c1
Ans: inactive

Q: Repeat with CS(C)(=O)=O
Ans: inactive

Q: Repeat with O=S(=O)(OCCOC(F)(F)F)C(F)(F)F
Ans: inactive

Q: Repeat with C=C(C)C(=O)OCCC(F)(F)C(F)(F)C(F)(F)C(F)(F)C(F)(C(F)(F)F)C(F)(F)F
Ans: inactive

Q: Repeat with O=C(O)C(F)(F)C(F)(F)C(F)F
Ans: inactive

Q: Repeat with CC(=O)Nc1ccc(N=Nc2cc(C)ccc2O)cc1
Ans: inactive

###

Read-out: Macrophage colony-stimulating factor (MCSF), CSF1 (gene 1435)
experimental.details: BSK_LPS_MCSF: BioMAP Diversity Plus: LPS Assay for Macrophage colony-stimulating factor (MCSF) Biomarker Activity (AID 2283083)
conditions.used: primary human HUVEC with PBMC; actives raise or lower the signal
Activity calls are given as the source filed them. The calls were made as follows: active = hit-call score of the fitted dose curve at least 0.9, where 1 is the maximum; inactive = score below 0.9.
Pick from T = active, F = inactive when you respond.

>>> df
                                   molecule  class
0  FC(F)(Br)C(F)(F)C(F)(F)C(F)(F)C(F)(F)C(F)(F)Br      F
1  C=C(C)C(=O)OCC(F)(F)C(F)(F)C(F)(F)C(F)(F)C(F)(F)C(F)(F)C(F)(F)F      F
2  CC(C)(C)C(=O)CC(=O)C(F)(F)C(F)(F)C(F)(F)F      F
3        O=C(CC(=O)C(F)(F)C(F)(F)F)C(F)(F)F      F
4  O=C(O)C(F)(F)C(F)(F)C(F)(F)C(F)(F)C(F)(F)C(F)(F)C(F)(F)C(F)(F)C(F)(F)C(F)F      F

With those in mind, consider the next molecule.
Q: Which outcome was assigned to OCC(F)(F)C(F)(F)C(F)(F)C(F)(F)C(F)(F)C(F)(F)F in this test?
Ans: F

###

Read-out: Matrix Metallopeptidase 3 (MMP3), MMP3 (gene 4314)
experimental.details: BSK_BF4T_MMP3: BioMAP Diversity Plus: BF4T Assay for Matrix Metallopeptidase 3 (MMP3) Biomarker Activity (AID 2284271)
conditions.used: primary human bronchial epithelial cells with fibroblasts
The source made the active and inactive calls. The calls were made as follows: active = hit-call score of the fitted dose curve at least 0.9, where 1 is the maximum; inactive = score below 0.9.
parameter: outcome

// below: answered molecules
>>> df
                                   molecule  experimental_value
0                  FC(F)(F)C(F)(F)C(F)(F)CI            inactive
1  CCO[Si](CCC(F)(F)C(F)(F)C(F)(F)C(F)(F)C(F)(F)C(F)(F)F)(OCC)OCC            inactive
2  O=P(O)(O)OCCC(F)(F)C(F)(F)C(F)(F)C(F)(F)C(F)(F)C(F)(F)F            inactive
3  FC(F)(Br)C(F)(F)C(F)(F)C(F)(F)C(F)(F)C(F)(F)Br            inactive
4  FC(F)(F)C(F)(F)C(F)(F)C(F)(F)C(F)(F)C(F)(F)C(F)(F)I            inactive

Q: Item under review: FC(F)(F)C(F)(F)C(F)(F)C(F)(F)C(F)(F)C(F)(F)C(F)(F)C(F)(F)CCS . Reported outcome?
Ans: inactive

Q: Repeat with FC(F)(F)C(F)(F)C(F)(F)C(F)(F)C(F)(F)CCI
Ans: inactive

Q: Repeat with OCC(F)(F)C(F)(F)C(F)(F)F
Ans: inactive

Q: Repeat with O=C(O)C(F)(OC(F)(F)C(F)(OC(F)(F)C(F)(OC(F)(F)C(F)(F)C(F)(F)F)C(F)(F)F)C(F)(F)F)C(F)(F)F (centres undefined)
Ans: inactive

###

Read-out: Interleukin-8 (IL8), CXCL8 (gene 3576)
experimental.details: BSK_MyoF_IL8: BioMAP Diversity Plus: MyoF Assay for Interleukin-8 (IL8) Biomarker Activity (AID 2284261)
conditions.used: primary human lung fibroblasts
Calls of active or inactive are those of the source. The calls were made as follows: active = hit-call score of the fitted dose curve at least 0.9, where 1 is the maximum; inactive = score below 0.9.
parameter: AC50

In [3]: df
Out[3]:
                                   compound  experimental_value
0                OCCCC(F)(F)C(F)(F)C(F)(F)F            inactive
1        CCc1ccc(C(c2ccc(CC)cc2)C(Cl)Cl)cc1    7.95 µM (active)
2  FC(F)(F)C(F)(F)C(F)(F)C(F)(F)C(F)(F)C(F)(F)CC1CO1 (stereo not drawn)            inactive

###

Read-out: Epidermal growth factor receptor (EGFR), EGFR (gene 1956)
experimental.details: BSK_hDFCGF_EGFR: BioMAP Diversity Plus: hDFCGF Assay for Epidermal growth factor receptor (EGFR) Biomarker Activity (AID 2283057)
conditions.used: primary human foreskin fibroblasts; actives raise or lower the signal
The source made the active and inactive calls. The calls were made as follows: active = hit-call score of the fitted dose curve at least 0.9, where 1 is the maximum; inactive = score below 0.9.
Pick from active, inactive when you respond.

>>> df
                                   compound     class
0  FC(F)(F)C(F)(F)C(F)(F)N(C(F)(F)C(F)(F)C(F)(F)F)C(F)(F)C(F)(F)C(F)(F)F  inactive
1                     O=C(O)C(F)(F)C(F)(F)F  inactive
2  CCO[Si](CCC(F)(F)C(F)(F)C(F)(F)C(F)(F)C(F)(F)C(F)(F)F)(OCC)OCC  inactive
3         O[Si](c1ccccc1)(c1ccccc1)c1ccccc1  inactive

Q: Which outcome was assigned to CC(CCl)OP(=O)(OC(C)CCl)OC(C)CCl (stereo not given) in this test?
Ans: inactive

Q: Repeat with C=C(C)C(=O)OCCC(F)(F)C(F)(F)C(F)(F)C(F)(F)C(F)(C(F)(F)F)C(F)(F)F
Ans: inactive

Q: Repeat with CCCCCCC(C)OC(=O)CCCCC(=O)OC(C)CCCCCC (stereo not given)
Ans: inactive

Q: Repeat with CCCCCCCCCCCCCCCC[N+](C)(C)Cc1ccccc1
Ans: inactive

Q: Repeat with NC(=O)C(F)(F)C(F)(F)C(F)(F)C(F)(F)F
Ans: inactive

Q: Repeat with O=C(O)C(F)(OC(F)(F)C(F)(OC(F)(F)C(F)(F)C(F)(F)F)C(F)(F)F)C(F)(F)F (stereo not given)
Ans: inactive

Q: Repeat with C=C(C)C(=O)OCC(F)(F)C(F)(F)C(F)(F)F
Ans: inactive

Q: Repeat with C=CC/C=C/C/C=C/C/C=C/C
Ans: inactive

Q: Repeat with Nc1ccc([N+](=O)[O-])cc1O
Ans: inactive

Q: Repeat with OCCCC(F)(F)C(F)(F)C(F)(F)F
Ans: inactive

Q: Repeat with OCC(F)(F)C(F)(F)C(F)(F)C(F)(F)C(F)(F)C(F)F
Ans: inactive

Q: Repeat with C#C[C@]1(O)CC[C@H]2[C@@H]3CCc4cc(OC)ccc4[C@H]3CC[C@@]21C
Ans: active

Q: Repeat with FC(F)(F)C(F)(F)C(F)(F)C(F)(F)C(F)(F)C(F)(F)C(F)(F)C(F)(F)CCS
Ans: inactive

###

experimental.details: ATG_Oct_MLP_CIS: Attagene CIS-FACTORIAL HepG2 Assay for human Octamer-Binding Transcription Factor (Oct) (AID 2282993)
conditions.used: HepG2 Attagene cis-factorial Oct reporter, mRNA; actives raise or lower the signal
Activity calls are given as the source filed them. How the source made its calls: active means hit-call score of the fitted dose curve at least 0.9, where 1 is the maximum; inactive means score below 0.9.
Pick from 1.0 = active, 0.0 = inactive when you respond.

Worked set:
In [3]: df
Out[3]:
                                   compound  class
0  FC(F)(F)C(F)(F)C(F)(F)C(F)(F)C(F)(F)C(F)(F)C(F)(F)C(F)(F)F    0.0
1  CCCCCCCCC(F)(F)C(F)(F)C(F)(F)C(F)(F)C(F)(F)C(F)(F)F    1.0
2      O=C(OCCOCCOCCOC(=O)c1ccccc1)c1ccccc1    0.0
3                          CC/C=C\CCOC(C)=O    0.0
4  COC(=O)C1CCC(C(=O)OC)CC1 (configuration not stated)    0.0
5        Nc1ccc(Oc2cccc(Oc3ccc(N)cc3)c2)cc1    1.0

Q: Which outcome was assigned to COC(=O)CCC(F)(F)C(F)(F)C(F)(F)C(F)(F)F in this test?
Ans: 0.0

Q: Repeat with O=S(=O)(O)C(F)(F)C(F)(F)C(F)(F)C(F)(F)C(F)(F)C(F)(F)C(F)(F)F
Ans: 0.0
